- method: AUC in human at 60 to 120 mg, po QD after 24 hrs
- Type: ADME, organism-based
- condition-label: in vivo
quantity: AUC at 24 h (µM·h)
Entry rule: numbers only, all in µM·h.

What the record says about COC(=O)C1=C(C)NC(C)=C(C(=O)OCCN(C)Cc2ccccc2)C1c1cccc([N+](=O)[O-])c1 (stereo unspecified) : AUC at 24 h is 0.72

---

- method: clinical
- condition-label: human, in vivo, po, 10 mg
quantity: AUC at 24 h

What the record says about CCOC(=O)N1CCC(=C2c3ccc(Cl)cc3CCc3cccnc32)CC1 [LORATADINE] : AUC at 24 h is 0.029 µM·h
